These measurements were taken from ChEMBL document CHEMBL1201862.

tested on: UACC-257; assay: NCI tumour cell line growth inhibition, 48 h
The source made the active and inactive calls. Cut-off read from the data, not from the text of the source: active = GI50 up to about 1.1 µM and inactive = higher.
Possible outcomes: active, inactive

Compound	Classification
CC(=O)NC1C(OCc2ccccc2)OC(CO)C(O)C1OC(C)C(=O)N[C@@H](C)C(=O)N[C@H](CCC(=O)NCCNCCNc1c2ccccc2nc2cccc([N+](=O)[O-])c12)C(N)=O (stereo partly drawn)	active
Nc1ncnc2c1ncn2[C@@H]1O[C@H](COC(c2ccccc2)(c2ccccc2)c2ccccc2)[C@@H](OC(=S)Oc2ccccc2)[C@@H]1F	inactive
COc1cc(Cl)c2c3c(c(C(=O)c4ccccc4)oc13)CCC2	inactive
CC(=O)O[C@H]1C(=O)[C@@]2(C)C([C@H](OC(=O)c3ccccc3)[C@]3(O)C[C@H](OC(=O)[C@H](O)[C@H](NC(=O)c4ccccc4)c4ccc(Cl)cc4)C(C)=C1C3(C)C)C1(OC(C)=O)CO[C@@H]1C[C@@H]2O (stereo partly drawn)	active
COC(=O)CSc1[nH]c2nc(C)nc(Nc3ccccc3)c2c1C#N	inactive
COc1ccc2nc3n(c2c1)C(c1c(Cl)cccc1Cl)SC3 (stereo not drawn)	inactive
Clc1ccc(/N=C2\c3ccccc3CN2c2ccc(Cl)cc2)cc1	inactive
COc1cc2c(cc1C)NC(=O)/C2=C/c1c(Cl)[nH]c2cc(C)c(OC)cc12	inactive
O=c1cnn(C/C=C/CO)c(=O)[nH]1	inactive
C=Cc1ccccc1C1C(C(=O)OCC)=C(C)N=C2OC(C(=O)OC)C(=O)N21 (stereo not drawn)	inactive
COc1cc(/C=C/c2cc(=O)cc(/C=C/c3ccc(O)c(OC)c3)o2)ccc1O	inactive
COc1ccc2[nH]c3c(C)c4cnccc4c(C)c3c2c1	inactive
O=C1C(c2c(O)[nH]c3ccc(Br)cc23)=Nc2ccccc21	inactive
